system: MDA-MB-231; experiment: NCI tumour cell line growth inhibition, 48 h
Active and inactive are the calls of the source. Cut-off read from the data, not from the text of the source: active = GI50 up to about 1.1 µM and inactive = higher.
Recorded measurements of GI50, one per entry

Molecule	GI50
N#Cc1c(N)nc(Nc2cccc3ccccc23)c(C#N)c1C#N	3.73 µM (inactive)
Cn1c(=O)c2c(nc3sc4ccccc4c(=O)n32)n(C)c1=O	> 100 µM (inactive)
CC(=O)Oc1cc(S(=O)(=O)Nc2nc(N)n[nH]2)c(S)cc1Cl	> 100 µM (inactive)
Nc1ncnc2c1cnn2Cc1ccc(Cl)cc1	> 100 µM (inactive)
C=CC1CN(C(=O)OCC)N(C(=O)OCC)C1CCc1ccccc1 (stereo unspecified)	> 100 µM (inactive)

Please look at the following molecule next.
Challenge: Recorded GI50 of Cc1ccn2c(=O)cc(-c3ccccc3)nc2c1 , please.
Response given: > 100 µM (inactive)

Values compiled from ChEMBL document CHEMBL1201862.
